Where do the numbers come from? From the nanobody polyreactivity screen of Harvey et al. (2022).

# assay.explanation: yeast display, Sf9 membrane polyspecificity reagent, FACS + sequencing; frameworks hold sequencing errors
measurement.name: polyreactivity (PSR sort gate)

>>> experimental_result("QVQLVESGGGLVQAGGSLRLSCAASGFTFPIYAMGWYRQAPGKERELVAAITTRGGRTYYADSVKGRFTISRDNAKNTVYLQMNSLKPEDTAVYYCTTRGRRTDYDYWGQGTQVTVSS")
"high polyreactivity"
>>> experimental_result("QVQLVESGGGLVQAGGSLRLSCAASGIILYGYARGWYRPAPGKESELVAAISRRGGITYYADTVKARYTISRDNAKNSVYLQMNSLKPEDTAVYYCAADINRRPSYHPDYEYWGQGTQVTVSS")
"high polyreactivity"
>>> experimental_result("QVQLVESGGGLVQAGGSLRLSCAASGSIFRTNAMGWYRQAPGKERELVAAISRRGSNTYYADSVKGRFTISRDNAKNTVYLLMNSMKPEDTAVYYCAADVSGSKYDYWGQGTQVTVSS")
"high polyreactivity"

----------
# assay.explanation: yeast display, Sf9 membrane polyspecificity reagent, FACS + sequencing; frameworks hold sequencing errors
measurement.name: polyreactivity (PSR sort gate)

>>> experimental_result("QVQIVESGGGLVQAGGSLRLSCAASGSTFYYNTMGWYRQAPGKERELVAAISWRRVSTYYADSVKGRFTISRDIAKNTVYFQMNSLKPEDTAVYYCNAVHHYPEHIGGGYWGQGSQVTVSS")
"low polyreactivity"
>>> experimental_result("QVQLVESGGGLVQAGGSLRLSCAASGRTFGGYAMGWYRQAPGKERELVAAISRSGGSTRYADSVKGRFTISRDNAKNTVYLQMNSLKPEDTAVYYCAARQKYEILMEYWGQGTQVTVSS")
"high polyreactivity"
>>> experimental_result("QVQLVESGGGLVQAGGSLRLSCAAYGYIFIRNAMGCYRQAPGKERELVAAISWTGGNTYYADSVKGRFTISRDNAKNTVYLQMNSLIPEDTAVYYCAAQRSVFKSFRTTYVSYDYWGQGTQVTVSS")
"high polyreactivity"
>>> experimental_result("QVQLEESGGGLVQAGGSLRLSSAASGFIYVYAMGWYRQAPGKVRELVAAITATGDSTYYADSVKGRFTISRDNAKNTVYLQMNSLKPEDTAVYYCARNVNAQKVLGGFDSWGQGTQVNVSS")
"low polyreactivity"
>>> experimental_result("QVQLVESGGGLVQAGGSLRLSCAASGSTFAVNVMGWYRQAPGKERELVATITYRDGRTYYADSVKGRFTISRDNAKNTVYLQMNSLNPEDTAVYYCAADDEYKQEAEMDSWGQGTQVTVSS")
"low polyreactivity"

----------
# assay.explanation: yeast display, Sf9 membrane polyspecificity reagent, FACS + sequencing; frameworks hold sequencing errors
measurement.name: polyreactivity (PSR sort gate)

>>> experimental_result("QVQLVESGGGLVQAGGSLRLSCAASGRIFNGYTMGWYRQAPGKEREFVATISRSGGSTYYADSVKGRFTISRDNAKNTVYLQMNSLKPEDTAVYYCAKTYPAKWEYDYWGQGTQVTVSS")
"low polyreactivity"
>>> experimental_result("QGQLVQSGVGLVQAGGSLSLSCAASGIIFTWYDMGWYRQAPGKERELVAAISNSGGSTYYADSVKGRFTISRDNAKNTVYLQMNSLKPEDTAVYYCNAGSYVCEEDYWGQGTQVTVSS")
"high polyreactivity"
>>> experimental_result("QVQLVESGGGLVQAGGSLRLSCAACGFIFRRYAMGWYRQAPGKERELVAAISSGGNTNYADSVKGRFTISRDNAKNTVYLQMNSLKPEDTAVYYCAVLGWYYYKYDYWGQGTQVNVSS")
"high polyreactivity"
>>> experimental_result("QVQLVESGGGLVQAGGSLRLSCAASGRILEGYAMGWYRQAPGKEELVAAITSDASTYYADSVKGRFTMSRDNAKNTVYLQINSLKPEDTAVYYCAADTYDNDYYYWGQGTLVTVSS")
"high polyreactivity"
>>> experimental_result("QVQLVESGGGLVQAGGSLRLSCAASGRTVSGYSMGWYIQAPGKERELVARITSGYSTNYADSVKWRFTISRDNAKNTVYLQMNCMKPEDTAVYYCAADRVWAFWTYGYWGQGTQVTVSS")
"low polyreactivity"
